- Tested on: SF-268 CNS
- EXPERIMENT NOTES: NCI-60 one-dose screen, 48 h (100 = growth as untreated, 0 = no growth, -100 = all killed)
- TEST PARAMETERS: 10 µM unless noted
Compounds without any hit were thinned out: in the full panel of roughly 83,000, 20% have a hit.
Recorded growth values for a group of molecules are listed next.
Number only, in %; omit the unit.

Reference set, count: 2
INSERT INTO assay_data (sample_smiles, experimental_value) VALUES
  ('Cc1ccc(Nn2c(SCC(=O)Nc3nc(-c4ccccc4)cs3)nc(C)c2C)cc1', 81.7),
  ('Cc1ccc(C[P+](c2ccccc2)(c2ccccc2)c2ccccc2)cc1', 15.5);

Item COc1ccc(C(=O)/C=C/c2c(C(F)(F)F)nc3ccccn23)cc1OC with SF-268 CNS - growth? 5.35

Fill in the recorded growth for this molecule, with SF-268 CNS as test system: Cn1cc(-c2csc(-c3c[nH]c4ccccc34)n2)c2cnccc21 54.6

Give the reported growth for CC(C)=CCC[C@](C)(O)[C@H]1CC[C@]2(C)[C@@H]1CC[C@@H]1[C@@]3(C)C/C(=C/c4ccco4)C(=O)C(C)(C)[C@@H]3CC[C@]12C (system: SF-268 CNS). 101

What value of growth on SF-268 CNS does CC1(C)COB(OCC(C)(C)COB2OCC(C)(C)CO2)OC1 have? 100

Fill in the recorded growth for this molecule, with SF-268 CNS as test system: c1ccc(Cn2cc3c(c2)-c2oncc2CC3)cc1 37.2

Hello, I am looking for reported growth with SF-268 CNS for CN(/C(N)=N/N=C/c1c2ccccc2cc2ccccc12)C1CCCCC1 . Could you help? 72.4

Enter reported growth observed with SF-268 CNS for COc1ccc(/C=C/C(=O)c2cc3c(N)c(C(=O)Nc4cccc5ccccc45)sc3nc2C)cc1 74.5

For SF-268 CNS, provide growth of COc1ccc(-c2nc3c(ncc4ccc(=O)[nH]c43)s2)cc1 please. 76.6

* * *

The molecules listed here are annotated with their growth.
- Tested on: PC-3 prostate
- EXPERIMENT NOTES: NCI-60 one-dose screen, 48 h (100 = growth as untreated, 0 = no growth, -100 = all killed)
- TEST PARAMETERS: 10 µM unless noted
The panel holds about 83,000 compounds, 20% with a hit somewhere; the sample as a whole holds those more often.
Reply numerically in %, unit not repeated.

Example entries begin here.
INSERT INTO assay_data (molecule, recorded_endpoint, experimental_value) VALUES
  ('Cn1cc(-c2csc(-c3c[nH]c4ccccc34)n2)c2cnccc21', 'growth', 48.4),
  ('COc1ccc(C/C(C)=C(/c2ccc(OCCN(C)C)cc2)c2ccc(OC(=O)NCc3ccccc3)cc2)cc1', 'growth', 68.4),
  ('CCOC(=O)c1ccc(NC(=O)c2nc(-c3cc(OC)c(OC)c(OC)c3)n(-c3ccc(Cl)cc3)n2)cc1', 'growth', 77.5),
  ('O=C(Nc1ccccc1O)c1ccc(CNC(=O)c2sccc2Nc2ccnc(C(F)(F)F)c2)cc1', 'growth', 35.2),
  ('COc1cc2c(cc1OCCCN1CCN(CCCOc3cc4c(cc3OC)C(=O)N3CC(F)(F)C[C@H]3C=N4)CC1)N=C[C@@H]1CC(F)(F)CN1C2=O', 'growth', 68.5);

Item O=C(N(c1ccccc1)c1ccccc1)n1cc(I)c2nc(Cl)nc(Cl)c21 has what recorded growth? 32.1

Could you share which growth value was measured for [O-]/[N+](=C\c1ccc(-n2cc(Cc3ccccc3Cc3cn(-c4ccc(/C=[N+](/[O-])c5ccccc5)cc4)nn3)nn2)cc1)c1ccccc1 ? 103

Query (molecule): Cc1[nH]c(=O)[nH]c(=O)c1Br ; field requested: growth 97.9

Need growth of N#Cc1ccc(O)c(C2=NCC(c3cccc(Oc4ccccc4)c3)O2)c1 (stereo not drawn) , thanks. 31.4

For Cc1ccc2c(n1)C(=O)C(Br)=C(CC(C)C)C2=O , what is its reported growth? 97.5

* * *

- Tested on: HCT-15 colon
- EXPERIMENT NOTES: NCI-60 one-dose screen, 48 h (100 = growth as untreated, 0 = no growth, -100 = all killed)
- TEST PARAMETERS: 10 µM unless noted
About 83,000 compounds went through this panel and 20% of them were active in at least one assay; those are over-represented in the sample as a whole.
RECORDED ENDPOINT: growth (%)
Answer format: numeric, % implied, no suffix.

Example entries and their recorded answers appear below.
INSERT INTO results (sample_smiles, measurement_target, recorded_endpoint, experimental_value) VALUES
  ('COc1ccc2[nH]c(C(=O)N3CCN(C(=O)OCc4ccc5c(Cl)cc(Cl)c(O)c5n4)CC3)cc2c1', 'HCT-15 colon', 'growth', -44.2),
  ('Nc1ncc(-c2ccc3ncnc(Nc4cccc(Cl)c4)c3c2)cn1', 'HCT-15 colon', 'growth', 38.8),
  ('N#Cc1nc(-c2ccc(F)cc2)oc1S(=O)(=O)N1CCCCC1', 'HCT-15 colon', 'growth', -22.4);

Item under review: O=S(=O)(Nc1cc(F)cc(Cl)c1)c1ccc(-c2cnc(C3CC3)o2)cc1 . Reported growth? 25.4

I have this compound here, N=C(N)c1ccc(-c2ccc(-c3ccc(Cl)cc3Cl)s2)cc1 , and I need its recorded growth. -70.6

* * *

- Tested on: U251 CNS
- EXPERIMENT NOTES: NCI-60 one-dose screen, 48 h (100 = growth as untreated, 0 = no growth, -100 = all killed)
- TEST PARAMETERS: 10 µM unless noted
The panel holds about 83,000 compounds, 20% with a hit somewhere; the sample as a whole holds those more often.
Threshold rule: growth greater than or equal to 50% is condition met; below that, condition not met.

INSERT INTO measurements (compound, assigned_class) VALUES
  ('O=C(Cn1cc(CSc2nc3ccccc3o2)nn1)Nc1ccc(F)cc1F', 'condition met');

Is growth for O=C(/C=C/c1cccc(Cl)c1)c1cccc(OCCCOc2cccc(C(=O)/C=C/c3cccc(Cl)c3)c2)c1 at or above 50%? condition met

Evaluate COc1cc(-c2csc(NC(=O)c3ccc(N4CCOCC4)c(C(F)(F)F)c3)n2)cc(OC)c1OC : growth at minimum 50%? condition not met

I'd appreciate it if you could say whether CN(C)CCNC(=O)c1ccc(-c2nc3ccc4[nH]ncc4c3c3c2C2CCC3C2)cc1 (stereo not given) has growth at least equal to 50%. condition not met

Threshold query (growth >= 50%) on CC(=O)O[C@@H]1C[C@]2(C(C)C)O[C@@]1(C)[C@@H]1CCC(C)=C1[C@@H]2OC(=O)/C=C/c1ccccc1 condition met

* * *

Measured growth values are reported for all entries that follow.
- Tested on: NCI-H522 lung
- EXPERIMENT NOTES: NCI-60 one-dose screen, 48 h (100 = growth as untreated, 0 = no growth, -100 = all killed)
- TEST PARAMETERS: 10 µM unless noted
Compounds without any hit were thinned out: in the full panel of roughly 83,000, 20% have a hit.
Field: numeric (%). Do not append units.

INSERT INTO measurements (compound, experimental_value) VALUES
  ('CCCCCCCC[C@@H]1N[C@@H](C(=O)OC)Cc2c1[nH]c1ccccc21', 86.6),
  ('O=C(CSc1nc2sc3c(c2c(=O)n1-c1ccccc1)CCCCC3)N/N=C/c1cccc([N+](=O)[O-])c1', 53.5),
  ('CCOC(=O)c1nn(-c2ccc(S(N)(=O)=O)cc2)c2nc(C)cc(=O)n12', 100),
  ('C=C1C(=O)O[C@H]2[C@H]1CC/C(Cn1cc(-c3ccccc3)nn1)=C\CC[C@@]1(C)O[C@@H]21', -62),
  ('CCCCCC(/C=N\NC(=S)N/N=C/C(=C/c1ccccc1)CCCCC)=C\c1ccccc1', 40.4);

Request: growth, test system NCI-H522 lung, entry N#Cc1ccc(O)c(C2=NCC(c3cccc(Oc4ccccc4)c3)O2)c1 (centres undefined) -11.9

Given the entry CC(C)c1ccc(C(=O)Nc2nc3ccc(O)c(CN(C)C)c3s2)cc1 , what growth was observed with NCI-H522 lung? 79.4

Return growth measured with NCI-H522 lung given this compound: O=C1Nc2ccc(C(=O)O)cc2/C1=N/c1nnc(Sc2ccccc2)s1 94.3

API: value(readout=growth, system=NCI-H522 lung) for record COC(=O)[C@]12CCC(C)(C)C[C@H]1[C@H]1/C(=N/OCCc3nn[nH]n3)C[C@@H]3[C@@]4(C)CC[C@H](OC(C)=O)C(C)(C)[C@@H]4CC[C@@]3(C)[C@]1(C)CC2 38.3

* * *

- Test system: T-47D breast
- EXPERIMENT NOTES: NCI-60 one-dose screen, 48 h (100 = growth as untreated, 0 = no growth, -100 = all killed)
- TEST PARAMETERS: 10 µM unless noted
Compounds without any hit were thinned out: in the full panel of roughly 83,000, 20% have a hit.
RECORDED ENDPOINT: growth (%)
The answer is to be given in %; state only the numeric part.

INSERT INTO measurements (sample_smiles, experimental_value) VALUES
  ('CS(=O)(=O)Nc1cc(-c2ccc3ncnc(Nc4ccc5c(cnn5Cc5ccc(F)cc5)c4)c3c2)cnc1Cl', 5.06),
  ('O=C(Nc1cccc(Cl)c1)Nc1cccc(Cn2c(=O)[nH]c3ccc(Oc4ncccn4)cc3c2=O)c1', 16.3),
  ('Cc1ccc(NC(=O)Cn2cc(CN3CCN(c4ccnc5cc(Cl)ccc45)CC3)nn2)cc1', 86.5),
  ('Cn1c(I)c(C#CCO[Si](C)(C)C(C)(C)C)c(=O)[nH]c1=O', 61.9);

Kindly review the next molecule as well.
What measured growth goes with O=C1/C(=C/c2cn(-c3ccccc3)nc2-c2ccccc2)SC(=S)N1C1CCCCC1 ? 97
